Attribute: pIC50
# system name: TrkA kinase (Homo sapiens)
# Construct: purchased Upstate, USA
# experiment: In vitro TrkA inhibitory activity using TR-FRET assay
# Type: biochemical
# settings: 5 ng TrkA, 500 μM ATP, read-out: TrkA inhibition in-vitro IC50
pIC50: −log10 of the molar value.

// query pIC50 value for entry `O=C(NS(=O)(=O)C1(Cc2ccc(F)cc2)CC1)c1cnn2ccc(N3CCC[C@@H]3c3cc(F)ccc3F)cc12`
≥ 7.30

I am curious: what pIC50 value has been reported for `CN(C)S(=O)(=O)NC(=O)c1cnn2ccc(N3CCC[C@@H]3c3cccc(F)c3)c(F)c12` ?
≥ 7.30

Give the measured pIC50 of `CCN(CC)S(=O)(=O)NC(=O)c1cnn2ccc(N3CCC[C@@H]3c3cc(F)ccc3OCCF)cc12` .
≥ 7.30

---

# system name: TrkA kinase (Homo sapiens)
# Construct: purchased Upstate, USA
# experiment: In vitro TrkA inhibitory activity using TR-FRET assay
# Type: biochemical
# settings: 5 ng TrkA, 500 μM ATP, read-out: TrkA inhibition in-vitro IC50
# Method: Determination of In Vitro TrkA Inhibitory Activity Using TR-FRET Assay Compounds were screened in the TR-FRET assay with TrkA kinase. 5 ng of TrkA [Upstate, USA] kinase was used for assay. […] The Eu-labelled antiphospho-tyrosine antibody [Perkin Elmer, USA] was added at 0.5 nM and the fluorescence emission at 615 nm/665 nm [excitation at 340 nm] was measured. […] The fluorescence was measured in Perkin Elmer Wallac 1420 Multilabel Counter Victor 3. […]
Attribute: IC50

Recorded IC50, per entry:
INSERT INTO assay_data (compound, result_value) VALUES
  ('CC(C)(C)S(=O)(=O)NC(=O)c1cnn2ccc(N3C[C@@H](F)C[C@@H]3c3cc(F)ccc3F)cc12 [Example 128]', '≤ 50 nM'),
  ('O=C(NS(=O)(=O)Cc1ccccc1)c1cnn2ccc(N3CCC[C@@H]3c3cc(F)ccc3F)cc12', '≤ 50 nM');

# returns recorded IC50 (system: TrkA kinase (Homo sapiens)) for CC(C)(C)S(=O)(=O)NC(=O)c1cnn2ccc(N3CCC[C@@H]3c3cc(F)ccc3OC3CCOC3)cc12 (stereo partly drawn) [Example 60]
50 to 100 nM

---

# system name: TrkA kinase (Homo sapiens, UniProt P04629)
# Construct: purchased Upstate, USA
# Sequence (P04629 33-796): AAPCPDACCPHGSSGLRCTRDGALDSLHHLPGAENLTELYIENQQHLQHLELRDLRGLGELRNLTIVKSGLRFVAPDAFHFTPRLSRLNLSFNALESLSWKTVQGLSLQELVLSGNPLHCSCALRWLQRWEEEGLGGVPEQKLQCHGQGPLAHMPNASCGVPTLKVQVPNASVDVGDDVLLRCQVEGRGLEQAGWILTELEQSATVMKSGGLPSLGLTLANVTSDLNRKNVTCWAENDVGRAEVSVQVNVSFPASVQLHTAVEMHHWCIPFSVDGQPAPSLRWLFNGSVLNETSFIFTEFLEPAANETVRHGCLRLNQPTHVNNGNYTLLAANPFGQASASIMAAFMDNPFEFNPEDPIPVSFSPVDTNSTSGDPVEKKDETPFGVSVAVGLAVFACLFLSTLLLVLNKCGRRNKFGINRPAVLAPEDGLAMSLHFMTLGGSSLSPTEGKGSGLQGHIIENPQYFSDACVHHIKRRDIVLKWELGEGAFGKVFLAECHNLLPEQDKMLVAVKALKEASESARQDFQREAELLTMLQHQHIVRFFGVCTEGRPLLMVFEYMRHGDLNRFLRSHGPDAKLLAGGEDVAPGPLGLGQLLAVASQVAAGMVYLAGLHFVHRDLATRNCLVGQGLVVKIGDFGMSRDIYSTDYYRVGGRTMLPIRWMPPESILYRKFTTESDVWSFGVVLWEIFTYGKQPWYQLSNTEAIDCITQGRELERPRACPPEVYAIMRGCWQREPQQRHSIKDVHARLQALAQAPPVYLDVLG
# experiment: In vitro TrkA inhibitory activity using TR-FRET assay
# Assay type: biochemical
# settings: 5 ng TrkA, 500 μM ATP, read-out: TrkA inhibition in-vitro IC50
Reported IC50 values for the following compounds.

INSERT INTO measurements (compound, parameter, result_value) VALUES
  ('CCN(C)S(=O)(=O)NC(=O)c1cnn2ccc(N3CCC[C@@H]3c3cc(F)ccc3OC3CCOC3)cc12 (some centres unmarked) [Example 139]', 'IC50', '≤ 50 nM'),
  ('O=C(NS(=O)(=O)N1CCCCC1)c1cnn2ccc(N3CCC[C@@H]3c3cc(F)ccc3F)cc12 [Example 89]', 'IC50', '≤ 50 nM'),
  ('O=C(NS(=O)(=O)N1CCOCC1)c1cnn2ccc(N3CCC[C@@H]3c3cc(F)ccc3F)cc12 [Example 84]', 'IC50', '≤ 50 nM'),
  ('CC(C)(C)S(=O)(=O)NC(=O)c1cnn2ccc(N3C[C@@H](F)C[C@@H]3c3cc(F)ccc3F)cc12 (single isomer, unassigned) [Example 52]', 'IC50', '≤ 50 nM'),
  ('CCOc1ccc(F)cc1[C@H]1CCCN1c1ccn2ncc(C(=O)NS(=O)(=O)C(C)(C)C)c2c1 [Example 45]', 'IC50', '50 to 100 nM');

Request: IC50, test system TrkA kinase (Homo sapiens, UniProt P04629), entry CC(C)(C)S(=O)(=O)NC(=O)c1cnn2ccc(N3CCC[C@@H]3c3cncc(F)c3)cc12 [Example 44]
50 to 100 nM

# returns recorded IC50 (system: TrkA kinase (Homo sapiens, UniProt P04629)) for O=C(NS(=O)(=O)c1ccc2c(c1)OCCO2)c1cnn2ccc(N3CCC[C@@H]3c3cc(F)ccc3F)cc12 [Example 34]
50 to 100 nM

Reported IC50 for TrkA kinase (Homo sapiens, UniProt P04629), given CCN(CC)S(=O)(=O)NC(=O)c1cnn2ccc(N3CCC[C@@H]3c3cc(F)ccc3F)cc12 [Example 81] ?
≤ 50 nM

Query IC50 on TrkA kinase (Homo sapiens, UniProt P04629) for O=C(NS(=O)(=O)N1CCCC1)c1cnn2ccc(N3CCC[C@@H]3c3cc(F)ccc3F)cc12 [Example 85]
≤ 50 nM

Lab request: please report IC50 under test system TrkA kinase (Homo sapiens, UniProt P04629) for CC1(S(=O)(=O)NC(=O)c2cnn3ccc(N4CCC[C@@H]4c4cc(F)ccc4F)cc23)CC1 [Example 134]
50 to 100 nM

Find IC50 (TrkA kinase (Homo sapiens, UniProt P04629)) for the entry CCN(C)S(=O)(=O)NC(=O)c1cnn2ccc(N3C[C@@H](F)C[C@@H]3c3cc(F)ccc3F)cc12 [Example 79]
≤ 50 nM

Please provide the recorded IC50 for CCCS(=O)(=O)NC(=O)c1cnn2ccc(N3CCC[C@@H]3c3cc(F)ccc3F)cc12 [Example 10] , tested on TrkA kinase (Homo sapiens, UniProt P04629).
≤ 50 nM

API: value(readout= IC50, system= TrkA kinase (Homo sapiens, UniProt P04629), query= CCN(C)S(=O)(=O)NC(=O)c1cnn2ccc(N3CCC[C@@H]3c3cc(F)ccc3F)cc12 [Example 77] )
≤ 50 nM

Quick check: IC50 on TrkA kinase (Homo sapiens, UniProt P04629), item COCCOc1ccc(F)cc1[C@H]1CCCN1c1ccn2ncc(C(=O)NS(=O)(=O)C(C)(C)C)c2c1 [Example 65] ?
≤ 50 nM

Value wanted: IC50 (TrkA kinase (Homo sapiens, UniProt P04629)) of entry CC(C)(C)S(=O)(=O)NC(=O)c1cnn2ccc(N3C[C@@H](F)C[C@@H]3c3cccc(F)c3)c(F)c12 [Example 137]
≤ 50 nM

Look up IC50 with TrkA kinase (Homo sapiens, UniProt P04629) for this compound: CC1(S(=O)(=O)NC(=O)c2cnn3ccc(N4C[C@@H](F)C[C@@H]4c4cc(F)ccc4F)cc23)CC1 [Example 74]
≤ 50 nM

Kindly state the measured IC50 obtained for CC(C)(C)S(=O)(=O)NC(=O)c1cnn2ccc(N3CCC[C@@H]3c3cc(F)ccc3OC(F)F)cc12 [Example 63] with TrkA kinase (Homo sapiens, UniProt P04629).
50 to 100 nM

Request: IC50, test system TrkA kinase (Homo sapiens, UniProt P04629), entry CN(C)S(=O)(=O)NC(=O)c1cnn2ccc(N3C[C@@H](F)C[C@@H]3c3cc(F)ccc3F)cc12 [Example 78]
≤ 50 nM

For TrkA kinase (Homo sapiens, UniProt P04629), provide IC50 of O=C(NS(=O)(=O)c1ccc(N2CC[C@H](O)C2)nc1)c1cnn2ccc(N3CCC[C@@H]3c3cc(F)ccc3F)cc12 [Example 25] please.
≤ 50 nM

Notebook: pull reported IC50 for TrkA kinase (Homo sapiens, UniProt P04629), entry CN(C(=O)c1cnn2ccc(N3CCC[C@@H]3c3cc(F)ccc3F)cc12)S(=O)(=O)c1cccc(C#N)c1 [Example 9]
≤ 50 nM

---

Reported pIC50 values follow for various molecules
# system name: TrkA kinase (Homo sapiens)
# Construct: purchased Upstate, USA
# experiment: In vitro TrkA inhibitory activity using TR-FRET assay
# Assay type: biochemical
# settings: 5 ng TrkA, 500 μM ATP, read-out: TrkA inhibition in-vitro IC50
pIC50: −log10 of the molar value.

Example results:
INSERT INTO assay_data (molecule, result_value) VALUES
  ('COc1ccc(S(=O)(=O)NC(=O)c2cnn3ccc(N4CCC[C@@H]4c4cc(F)ccc4F)cc23)cn1', '7.00 to 7.30'),
  ('N#Cc1cccc(S(=O)(=O)NC(=O)c2cnn3ccc(N4CCC[C@@H]4c4cc(F)ccc4F)cc23)c1', '7.00 to 7.30'),
  ('CC(C)(C)S(=O)(=O)NC(=O)c1cnn2ccc(N3CCC[C@@H]3c3cc(F)ccc3OCC3CC3)cc12', '7.00 to 7.30');

Looking for the measured pIC50 of `CCN(C)S(=O)(=O)NC(=O)c1cnn2ccc(N3CCC[C@@H]3c3cc(F)cc(F)c3OC)cc12` , can you help?
≥ 7.30

What value of measured pIC50 is listed for `CCN(C)S(=O)(=O)NC(=O)c1cnn2ccc(N3CCC[C@@H]3c3cc(F)cc(F)c3OCCF)cc12` ?
≥ 7.30

Recorded pIC50 of CC(C)(C)S(=O)(=O)NC(=O)c1cnn2ccc(N3CCC[C@@H]3c3cc(F)ccc3OC3CCOC3)cc12 (stereo partly drawn) [Example 59] , please.
≥ 7.30

Can you look up the measured pIC50 of `O=C(NS(=O)(=O)c1ccc(N2CC[C@H](O)C2)nc1)c1cnn2ccc(N3CCC[C@@H]3c3cc(F)cc(F)c3)cc12` for me?
≥ 7.30

Need pIC50 of `Cc1ccccc1S(=O)(=O)NC(=O)c1cnn2ccc(N3CCC[C@@H]3c3cc(F)ccc3F)cc12` , thanks.
≥ 7.30

Provenance of the data: patent US10047087B2
